# target-or-system: TrkC (Homo sapiens, UniProt Q16288)
# method: radiometric kinase assay, other kinases: TrkC
# Format: biochemical
# Set-up: other kinases of recombinant human cytoplasmic domain
# condition-context: duplicate
# Sequence (Q16288 454-839 limits assumed): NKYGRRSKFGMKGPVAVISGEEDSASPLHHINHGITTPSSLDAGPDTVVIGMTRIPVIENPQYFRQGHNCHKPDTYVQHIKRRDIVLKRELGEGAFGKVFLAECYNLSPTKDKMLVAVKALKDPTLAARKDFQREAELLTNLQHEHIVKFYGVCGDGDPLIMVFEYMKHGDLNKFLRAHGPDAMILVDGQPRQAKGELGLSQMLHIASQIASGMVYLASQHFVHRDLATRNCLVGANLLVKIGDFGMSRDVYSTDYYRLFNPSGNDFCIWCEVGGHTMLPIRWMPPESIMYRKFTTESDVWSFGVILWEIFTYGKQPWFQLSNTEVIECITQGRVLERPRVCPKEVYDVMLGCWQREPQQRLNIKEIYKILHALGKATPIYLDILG
assay-endpoint: IC50

Give its IC50 value. Item: Nc1c(N2CCN(C3CCCCC3)CC2)cc(Nc2ccc(C(=O)O)cc2)c2c1C(=O)c1ccccc1C2=O [Compound 12]
> 10 µM

* * *

# target-or-system: TrkC (Homo sapiens, UniProt Q16288)
# method: live whole cell based functional assay, NT3 stimulated TrkC activation
# Set-up: expressed in transfected cells
# condition-context: triplicate
# Sequence (Q16288 32-839): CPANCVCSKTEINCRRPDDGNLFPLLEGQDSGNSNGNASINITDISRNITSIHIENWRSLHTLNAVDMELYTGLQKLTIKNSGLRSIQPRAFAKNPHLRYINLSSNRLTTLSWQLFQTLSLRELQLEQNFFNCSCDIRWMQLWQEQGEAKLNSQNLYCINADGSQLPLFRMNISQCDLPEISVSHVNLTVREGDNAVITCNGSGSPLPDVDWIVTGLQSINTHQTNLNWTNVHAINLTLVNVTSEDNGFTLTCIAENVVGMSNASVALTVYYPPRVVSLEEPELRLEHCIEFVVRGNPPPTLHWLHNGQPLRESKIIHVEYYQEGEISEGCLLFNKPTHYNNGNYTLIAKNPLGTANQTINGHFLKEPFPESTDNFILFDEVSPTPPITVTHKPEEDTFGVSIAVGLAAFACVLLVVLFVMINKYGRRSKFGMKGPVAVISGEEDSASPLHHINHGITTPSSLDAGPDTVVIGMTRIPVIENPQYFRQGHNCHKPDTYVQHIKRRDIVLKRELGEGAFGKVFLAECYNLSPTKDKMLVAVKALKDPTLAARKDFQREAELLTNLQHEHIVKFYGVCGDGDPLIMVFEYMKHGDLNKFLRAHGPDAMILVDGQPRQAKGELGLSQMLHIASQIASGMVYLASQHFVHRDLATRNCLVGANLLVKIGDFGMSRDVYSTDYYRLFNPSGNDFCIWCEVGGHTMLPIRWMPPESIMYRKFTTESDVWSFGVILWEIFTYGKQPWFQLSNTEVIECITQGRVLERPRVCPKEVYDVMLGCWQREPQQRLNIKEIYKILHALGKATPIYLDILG
pIC50: −log10 of the molar value.
assay-endpoint: pIC50

Give its pIC50 value. Item: Nc1c(N2CCN(C3CCCCC3)CC2)cc(Nc2ccc(C(=O)O)cc2)c2c1C(=O)c1ccccc1C2=O
< 5.00

* * *

# method: Pharmacokinetics and bioavailability in CD-1 mice
# condition-context: CD-1, mouse, in vivo, po, 50 mg/kg
assay-endpoint: bioavailability

Give its bioavailability value. Item: Nc1c(N2CCN(C3CCCCC3)CC2)cc(Nc2ccc(C(=O)O)cc2)c2c1C(=O)c1ccccc1C2=O [Compound 12]
~100%

* * *

# target-or-system: FMS (Homo sapiens, UniProt P07333)
# Construct: other kinases of recombinant human cytoplasmic domain
# Sequence (P07333 539-972 limits assumed): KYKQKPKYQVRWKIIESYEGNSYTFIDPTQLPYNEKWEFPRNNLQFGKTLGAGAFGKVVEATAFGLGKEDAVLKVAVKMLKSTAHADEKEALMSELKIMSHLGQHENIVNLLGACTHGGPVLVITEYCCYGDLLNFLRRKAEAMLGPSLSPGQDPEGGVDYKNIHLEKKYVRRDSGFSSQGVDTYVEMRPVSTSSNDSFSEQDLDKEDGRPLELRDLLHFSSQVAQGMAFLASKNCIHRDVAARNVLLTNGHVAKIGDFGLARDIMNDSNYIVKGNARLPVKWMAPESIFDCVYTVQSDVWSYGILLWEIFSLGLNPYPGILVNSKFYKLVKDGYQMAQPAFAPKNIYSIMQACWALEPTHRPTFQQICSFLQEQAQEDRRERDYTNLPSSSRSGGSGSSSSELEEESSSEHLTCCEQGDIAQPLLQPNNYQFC
# method: radiometric kinase assay, other kinases: FMS
# condition-context: duplicate
assay-endpoint: IC50

Provide value of IC50 for this record tested with FMS (Homo sapiens, UniProt P07333): Nc1c(N2CCN(C3CCCCC3)CC2)cc(Nc2ccc(C(=O)O)cc2)c2c1C(=O)c1ccccc1C2=O [Compound 12]
> 10 µM

* * *

# target-or-system: P38a/MAPK14 (Homo sapiens, UniProt Q16539)
# Sequence (Q16539 whole entry): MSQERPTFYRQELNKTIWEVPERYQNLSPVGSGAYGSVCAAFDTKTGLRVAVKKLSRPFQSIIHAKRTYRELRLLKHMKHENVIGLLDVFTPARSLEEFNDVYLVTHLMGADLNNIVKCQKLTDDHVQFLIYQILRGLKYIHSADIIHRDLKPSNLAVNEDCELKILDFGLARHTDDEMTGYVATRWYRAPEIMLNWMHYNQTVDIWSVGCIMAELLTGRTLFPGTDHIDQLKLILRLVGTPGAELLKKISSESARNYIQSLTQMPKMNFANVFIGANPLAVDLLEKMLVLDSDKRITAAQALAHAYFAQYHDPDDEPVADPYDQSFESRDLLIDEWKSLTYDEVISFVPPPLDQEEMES
# method: radiometric kinase assay, other kinases: P38a/MAPK14
# condition-context: duplicate
pIC50: −log10 of the molar value.
assay-endpoint: pIC50

Give its pIC50 value. Item: Nc1c(N2CCN(C3CCCCC3)CC2)cc(Nc2ccc(C(=O)O)cc2)c2c1C(=O)c1ccccc1C2=O
< 5.00

* * *

# Test system: SK-HEP-1 human liver cancer cells
# method: Cell Viability and Proliferation Assay, SK-HEP-1
# Format: cell-based
# condition-context: SK-HEP1, after 24 incubation
assay-endpoint: IC50

Give its IC50 value. Item: Nc1c(N2CCN(C3CCCCC3)CC2)cc(Nc2ccc(C(=O)O)cc2)c2c1C(=O)c1ccccc1C2=O
~5 µM
